From: paper PMC10205683

# Experimental System: CYP142 (Mycobacterium tuberculosis, UniProt P9WPL5)
# Sequence (P9WPL5 2-398): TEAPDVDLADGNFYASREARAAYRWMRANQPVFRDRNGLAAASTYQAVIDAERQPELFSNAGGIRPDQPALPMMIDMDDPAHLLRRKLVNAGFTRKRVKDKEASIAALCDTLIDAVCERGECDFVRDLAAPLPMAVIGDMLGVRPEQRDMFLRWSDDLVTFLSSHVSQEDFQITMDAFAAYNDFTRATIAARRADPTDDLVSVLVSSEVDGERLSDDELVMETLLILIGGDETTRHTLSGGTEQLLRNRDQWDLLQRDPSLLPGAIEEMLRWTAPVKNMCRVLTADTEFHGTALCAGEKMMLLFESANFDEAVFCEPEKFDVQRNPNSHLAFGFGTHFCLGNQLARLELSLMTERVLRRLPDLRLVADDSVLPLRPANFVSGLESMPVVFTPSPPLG
# Measurement Conditions: read-out: KD (CYP142); UV-Vis spectroscopy
Assay Metric: Kd (nM)

* CCCC(=O)c1cc2cc(-c3ccncc3)ccc2n1CCC1CCNCC1 | 230

###

Listed here: items and their measured MIC.
# Tested on: Mtb strain K18b01MR
# Experiment Notes: microbe, parasite or virus in culture
# Assay type: cell-based
# Measurement Conditions: Mycobacterium tuberculosis, 168 h
Assay Metric: MIC (µM)

• Cc1nnc(-c2cc3cc(-c4ccncc4)ccc3n2CCC2CCNCC2)o1 = 50
• CCCC(=O)c1cc2cc(-c3ccncc3)ccc2n1CCC1CCNCC1 = 6.25
• Cc1cnc(-c2cc3cc(-c4ccncc4)ccc3n2CCC2CCNCC2)o1 = 6.25
• Cc1noc(-c2cc3cc(-c4ccncc4)ccc3n2CCC2CCNCC2)n1 = 6.25

###

# Experimental System: CYP142 (Mycobacterium tuberculosis, UniProt P9WPL5)
# Sequence (P9WPL5 2-398): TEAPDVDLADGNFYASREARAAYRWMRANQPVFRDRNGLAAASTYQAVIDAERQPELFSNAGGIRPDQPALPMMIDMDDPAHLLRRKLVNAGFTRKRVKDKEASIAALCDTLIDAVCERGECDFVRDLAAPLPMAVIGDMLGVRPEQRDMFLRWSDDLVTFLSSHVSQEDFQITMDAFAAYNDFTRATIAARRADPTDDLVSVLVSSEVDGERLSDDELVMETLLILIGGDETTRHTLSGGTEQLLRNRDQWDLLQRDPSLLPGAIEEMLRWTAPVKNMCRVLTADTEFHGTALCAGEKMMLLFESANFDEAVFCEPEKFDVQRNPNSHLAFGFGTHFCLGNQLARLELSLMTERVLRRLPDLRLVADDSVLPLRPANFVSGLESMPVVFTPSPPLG
# Experiment Notes: biochemical
# Measurement Conditions: UV-Vis spectroscopy
// boundary case: Kd equal to 400 nM maps to NOT MET; strictly smaller maps to MET

* NC(=O)c1cc2cc(-c3ccncc3)ccc2n1CC1CCCCC1 | MET
* Cc1nnc(-c2cc3cc(-c4ccncc4)ccc3n2CCC2CCNCC2)o1 | NOT MET
* Cc1cnc(-c2cc3cc(-c4ccncc4)ccc3n2CCC2CCNCC2)o1 | NOT MET
* CCOC(=O)c1cc2cc(-c3ccncc3)ccc2n1CC1CCCC1 | MET
* CCOC(=O)c1cc2cc(-c3ccncc3)ccc2n1Cc1ccccc1 | MET
* CCOC(=O)c1cc2cc(-c3ccncc3)ccc2n1CCN1CCOCC1 | NOT MET
* CCOC(=O)c1cc2cc(-c3ccncc3)ccc2n1C(=O)c1ccccc1 | NOT MET
* c1cc(-c2ccc3c(ccn3CCN3CCNCC3)c2)ccn1 | NOT MET

###

# System: Mtb strain K18b01MR
# Experiment Notes: microbe, parasite or virus in culture
# Assay type: cell-based
# Measurement Conditions: Mycobacterium tuberculosis, 336 h
Listed here: items and their measured MIC.
Assay Metric: MIC (µM)

* CCCC(=O)c1cc2cc(-c3ccncc3)ccc2n1CCC1CCNCC1 | 6.25
* Cc1nnc(-c2cc3cc(-c4ccncc4)ccc3n2CCC2CCNCC2)o1 | 50
* Cc1noc(-c2cc3cc(-c4ccncc4)ccc3n2CCC2CCNCC2)n1 | 6.25
* Cc1cnc(-c2cc3cc(-c4ccncc4)ccc3n2CCC2CCNCC2)o1 | 6.25

###

# Experimental System: CYP125 (Mycobacterium tuberculosis)
# Sequence (P9WPP1 18-433 limits assumed): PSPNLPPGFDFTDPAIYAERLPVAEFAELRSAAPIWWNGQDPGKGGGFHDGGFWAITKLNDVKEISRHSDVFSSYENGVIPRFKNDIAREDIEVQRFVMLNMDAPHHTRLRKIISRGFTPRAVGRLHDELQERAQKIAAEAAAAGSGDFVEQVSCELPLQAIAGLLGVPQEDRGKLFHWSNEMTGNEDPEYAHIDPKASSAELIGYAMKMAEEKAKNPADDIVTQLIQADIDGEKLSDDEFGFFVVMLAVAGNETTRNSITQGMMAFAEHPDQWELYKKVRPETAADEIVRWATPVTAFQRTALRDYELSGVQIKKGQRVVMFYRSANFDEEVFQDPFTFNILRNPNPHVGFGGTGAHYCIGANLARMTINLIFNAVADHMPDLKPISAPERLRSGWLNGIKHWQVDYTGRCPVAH
pKd: −log10 of the molar value.
Label class 1 when pKd is at or above 5; otherwise label class 0.

- COC(=O)c1cccc(-c2ccncc2)c1 [Compound 3]: class 0
- CCOC(=O)c1cc2cc(-c3ccncc3)ccc2n1Cc1ccccc1 [Compound 5]: class 1
- CCCC(=O)c1cc2cc(-c3ccncc3)ccc2n1CCC1CCNCC1 [Compound 19]: class 1
- CCOC(=O)c1cc2cc(-c3ccncc3)ccc2n1C(=O)c1ccccc1 [Compound 6]: class 1
- NC(=O)c1cc2cc(-c3ccncc3)ccc2n1CC1CCCCC1 [Compound 13]: class 1
- CCOC(=O)c1cc2cc(-c3ccncc3)ccc2n1CC1CCC1 [Compound 9]: class 1
- Cc1noc(-c2cc3cc(-c4ccncc4)ccc3n2CCC2CCNCC2)n1 [Compound 16]: class 0
- CCOC(=O)c1cc2cc(-c3ccncc3)ccc2n1CCC1CCNCC1 [Compound 10]: class 1
- CCOC(=O)c1cc2cc(-c3ccncc3)ccc2n1CC1CCNCC1 [Compound 11]: class 0
- CCOC(=O)c1cc2cc(-c3ccncc3)ccc2n1CCN1CCOCC1 [Compound 12]: class 1
- NC(=O)c1cc2cc(-c3ccncc3)ccc2n1CCN1CCNCC1 [Compound 15]: class 0
- Cc1cnc(-c2cc3cc(-c4ccncc4)ccc3n2CCC2CCNCC2)o1 [Compound 17]: class 1
- COc1ccc(-c2ccncc2)cc1 [Compound 2]: class 0
- CCOC(=O)c1cc2cc(-c3ccncc3)ccc2n1CC1CCCC1 [Compound 8]: class 1
